These measurements were taken from patent US8022206B2.

- system_name: RON (human) (Homo sapiens, UniProt Q04912)
- Sequence (Q04912 25-1400): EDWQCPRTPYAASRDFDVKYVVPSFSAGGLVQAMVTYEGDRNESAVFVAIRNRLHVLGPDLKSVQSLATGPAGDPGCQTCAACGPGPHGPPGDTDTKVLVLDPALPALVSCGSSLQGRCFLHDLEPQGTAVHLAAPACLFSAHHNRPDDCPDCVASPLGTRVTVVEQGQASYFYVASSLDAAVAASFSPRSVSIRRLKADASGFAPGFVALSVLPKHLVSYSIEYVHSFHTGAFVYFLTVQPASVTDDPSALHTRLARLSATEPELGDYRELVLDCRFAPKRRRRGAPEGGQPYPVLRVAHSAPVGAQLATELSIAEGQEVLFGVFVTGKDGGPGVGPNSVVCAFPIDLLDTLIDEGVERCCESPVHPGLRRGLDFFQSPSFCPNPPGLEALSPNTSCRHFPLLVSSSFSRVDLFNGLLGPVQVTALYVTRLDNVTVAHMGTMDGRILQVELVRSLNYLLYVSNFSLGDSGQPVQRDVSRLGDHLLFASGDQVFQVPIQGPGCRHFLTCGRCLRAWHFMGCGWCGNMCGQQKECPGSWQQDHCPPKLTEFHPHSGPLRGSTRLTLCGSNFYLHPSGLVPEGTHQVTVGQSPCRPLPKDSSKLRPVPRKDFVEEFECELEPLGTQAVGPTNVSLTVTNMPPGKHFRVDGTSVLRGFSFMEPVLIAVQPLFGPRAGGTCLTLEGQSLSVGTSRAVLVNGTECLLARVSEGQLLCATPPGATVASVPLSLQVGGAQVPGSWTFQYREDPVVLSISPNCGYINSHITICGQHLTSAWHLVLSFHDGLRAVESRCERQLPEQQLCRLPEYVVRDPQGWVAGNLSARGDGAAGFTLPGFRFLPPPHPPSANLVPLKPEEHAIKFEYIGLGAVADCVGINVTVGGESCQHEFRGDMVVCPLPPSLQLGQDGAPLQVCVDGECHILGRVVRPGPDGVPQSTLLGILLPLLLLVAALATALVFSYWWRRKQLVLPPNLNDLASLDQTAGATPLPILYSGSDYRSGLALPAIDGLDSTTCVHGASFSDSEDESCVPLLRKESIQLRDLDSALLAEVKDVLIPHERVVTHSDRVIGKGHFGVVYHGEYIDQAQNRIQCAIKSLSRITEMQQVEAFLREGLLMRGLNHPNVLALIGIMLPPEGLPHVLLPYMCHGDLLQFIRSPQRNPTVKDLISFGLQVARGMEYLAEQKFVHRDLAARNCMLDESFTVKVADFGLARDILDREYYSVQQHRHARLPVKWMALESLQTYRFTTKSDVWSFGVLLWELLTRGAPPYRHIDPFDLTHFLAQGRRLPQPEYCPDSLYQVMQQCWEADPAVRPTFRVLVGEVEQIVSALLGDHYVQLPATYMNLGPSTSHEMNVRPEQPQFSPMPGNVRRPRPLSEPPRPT
- method_notes: RON (human) AlphaScreen kinase assay, Km of ATP
- Format: biochemical
measure_name: IC50

Req: Output measured IC50 for this item: C[C@@H](Oc1c(N)ncc2c(-c3ccc(C(=O)N4CCC(=O)CC4)cc3)coc12)c1c(Cl)ccc(F)c1Cl [Example 284]
Resp: 500 to 5000 nM

----------
- system_name: MET (human) (Homo sapiens, UniProt P08581)
- Sequence (P08581 25-1390): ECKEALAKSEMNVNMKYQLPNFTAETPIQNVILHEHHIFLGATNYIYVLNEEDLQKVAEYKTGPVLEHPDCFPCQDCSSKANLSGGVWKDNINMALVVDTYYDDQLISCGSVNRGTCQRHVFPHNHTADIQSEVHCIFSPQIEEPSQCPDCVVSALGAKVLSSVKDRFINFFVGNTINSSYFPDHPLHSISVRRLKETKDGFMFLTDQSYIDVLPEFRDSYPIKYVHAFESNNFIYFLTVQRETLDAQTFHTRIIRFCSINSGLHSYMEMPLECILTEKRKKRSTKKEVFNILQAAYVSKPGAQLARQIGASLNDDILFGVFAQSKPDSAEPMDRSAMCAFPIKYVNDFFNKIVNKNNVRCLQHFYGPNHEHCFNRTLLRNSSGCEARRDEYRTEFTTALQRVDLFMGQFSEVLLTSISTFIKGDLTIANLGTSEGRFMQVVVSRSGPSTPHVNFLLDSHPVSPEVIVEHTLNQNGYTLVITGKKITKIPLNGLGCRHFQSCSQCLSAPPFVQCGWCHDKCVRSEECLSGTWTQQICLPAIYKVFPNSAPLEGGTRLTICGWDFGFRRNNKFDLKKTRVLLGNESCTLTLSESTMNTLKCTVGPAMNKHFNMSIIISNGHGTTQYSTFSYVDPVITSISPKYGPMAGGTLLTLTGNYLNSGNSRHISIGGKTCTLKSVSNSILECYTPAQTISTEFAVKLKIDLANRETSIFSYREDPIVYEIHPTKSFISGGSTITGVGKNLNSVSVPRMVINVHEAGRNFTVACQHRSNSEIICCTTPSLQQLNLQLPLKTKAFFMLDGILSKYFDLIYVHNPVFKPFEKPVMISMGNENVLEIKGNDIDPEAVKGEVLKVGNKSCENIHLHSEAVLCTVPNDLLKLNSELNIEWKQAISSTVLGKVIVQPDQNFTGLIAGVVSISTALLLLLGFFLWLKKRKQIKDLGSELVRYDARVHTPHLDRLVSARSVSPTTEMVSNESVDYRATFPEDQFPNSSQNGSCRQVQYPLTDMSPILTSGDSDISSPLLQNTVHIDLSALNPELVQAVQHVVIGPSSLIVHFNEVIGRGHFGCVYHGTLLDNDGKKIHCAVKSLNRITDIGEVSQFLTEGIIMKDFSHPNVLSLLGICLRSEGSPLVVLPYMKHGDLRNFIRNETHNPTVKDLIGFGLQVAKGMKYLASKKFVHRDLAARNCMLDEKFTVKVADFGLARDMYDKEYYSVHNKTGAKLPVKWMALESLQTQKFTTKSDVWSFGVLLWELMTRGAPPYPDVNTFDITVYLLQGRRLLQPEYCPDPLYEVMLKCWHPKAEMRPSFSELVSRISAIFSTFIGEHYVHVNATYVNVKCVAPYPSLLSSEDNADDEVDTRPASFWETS
- method_notes: MET (human) AlphaScreen kinase assay, Km of ATP
- Format: biochemical
- stated_conditions: AlphaScreen, Km of ATP; read-out: Met biochemical IC50
So I've got a bunch of compounds here, and I need their IC50 values.

Req: Tell me IC50 reported for C[C@@H](Oc1c(N)ncc2c(-c3csc(C(=O)N(C)C)c3)coc12)c1c(Cl)ccc(F)c1Cl
Resp: 0.5 to 5 µM

Req: Output IC50 of Nc1ncc2c(-c3cnn(C4CCNCC4)c3)coc2c1OC(CCc1ccccc1)c1c(Cl)ccc(F)c1Cl (centres unmarked)
Resp: 0.5 to 5 µM

Req: Please indicate IC50 recorded for C[C@@H]1CN(C(=O)c2ccc(-c3coc4c(O[C@H](C)c5c(Cl)ccc(F)c5Cl)c(N)ncc34)cc2)C[C@H](C)N1 (relative stereo)
Resp: < 0.5 µM

Req: Identify the reported IC50 for the following entry. C[C@@H](Oc1c(N)ncc2c(-c3ccc(OCCCN(C)C)nc3)coc12)c1c(Cl)ccc(F)c1Cl
Resp: < 0.5 µM

Req: Note IC50 for the compound shown: C[C@@H](Oc1c(N)ncc2c(C3=CCN(c4c(N)c(=O)c4=O)CC3)coc12)c1c(Cl)ccc(F)c1Cl
Resp: < 0.5 µM

Req: Note down IC50 recorded for CC(Cc1ccccc1Br)Oc1c(N)ncc2c(-c3cnn(C4CCNCC4)c3)coc12 (centres unmarked)
Resp: < 0.5 µM

Req: Could you please provide reported IC50 for Nc1ncc2c(-c3cnn(C4CCNCC4)c3)coc2c1OC(c1c(F)ccc(F)c1Cl)C1CC1 (centres unmarked) ? Thanks!
Resp: < 0.5 µM

Req: Output measured IC50 for this item: CC(/C=C/c1c(Cl)ccc(F)c1Cl)Oc1c(N)ncc2c(-c3cnn(C4CCNCC4)c3)coc12 (centres unmarked)
Resp: < 0.5 µM

Req: Report IC50, nothing else, for this compound: CC(Oc1c(N)ncc2c(-c3cnn(C4CCNCC4)c3)coc12)c1c(F)ccc(F)c1Cl (centres unmarked)
Resp: < 0.5 µM

Req: Find the measured IC50 of C[C@@H](Oc1c(N)ncc2c(-c3ccc(C(=O)N4CCCC4)cc3)coc12)c1c(Cl)ccc(F)c1Cl and report it.
Resp: < 0.5 µM

Req: Indicate the recorded IC50 value for this compound: C[C@@H](Oc1c(N)ncc2c(C3=CCN(C(=O)CN(C)C)CC3)coc12)c1c(Cl)ccc(F)c1Cl
Resp: < 0.5 µM

Req: Return reported IC50. Input compound: C[C@@H]1CN(C(=O)N2CC=C(c3coc4c(O[C@H](C)c5c(Cl)ccc(F)c5Cl)c(N)ncc34)CC2)C[C@H](C)N1 (relative stereo)
Resp: < 0.5 µM

Req: Give the value of IC50 reported for the following: C[C@@H](Oc1c(N)ncc2c(-c3cnc(N4CCN(C)CC4)nc3)coc12)c1c(Cl)ccc(F)c1Cl
Resp: 0.5 to 5 µM

Req: Specify measured IC50 for CC(Oc1c(N)ncc2c(-c3cnn(C4CCNCC4)c3)coc12)c1ccccc1 (centres unmarked) .
Resp: 0.5 to 5 µM

Req: Specify reported IC50 for the compound shown: C[C@@H](Oc1c(N)ncc2c(C3=CCN(C(=O)[C@H]4CCCNC4)CC3)coc12)c1c(Cl)ccc(F)c1Cl
Resp: < 0.5 µM

Req: Complete the entry with IC50 for CCC(Oc1c(N)ncc2c(-c3cnn(C4CCNCC4)c3)coc12)c1c(Cl)cccc1Cl (centres unmarked)
Resp: < 0.5 µM

Req: State, in one line, measured IC50 of C[C@@H](Oc1c(N)ncc2c(-c3ccc(N4CCN(C)CC4)cc3)coc12)c1c(Cl)ccc(F)c1Cl
Resp: < 0.5 µM

Req: Give the reported IC50 for this compound. C[C@@H](Oc1c(N)ncc2c(-c3ccc(N4CCN(C(N)=O)CC4)nc3)coc12)c1c(Cl)ccc(F)c1Cl
Resp: 0.5 to 5 µM

Req: Given the compound CC(C)C(=O)N1CC=C(c2coc3c(O[C@H](C)c4c(Cl)ccc(F)c4Cl)c(N)ncc23)CC1 , write its reported IC50.
Resp: 0.5 to 5 µM

Req: In one line, give reported IC50 of the entry C[C@@H](Oc1c(N)ncc2c(-c3ccc(CN4CCOCC4)s3)coc12)c1c(Cl)ccc(F)c1Cl .
Resp: 0.5 to 5 µM
